system: HL-60(TB) leukemia; experiment: NCI-60 one-dose screen, 48 h (100 = growth as untreated, 0 = no growth, -100 = all killed); conditions: 10 µM unless noted
Compounds without any hit were thinned out: in the full panel of roughly 83,000, 20% have a hit.
With a cut-off of -30%, any growth strictly below it is called Criterion met; any growth meeting it or above is called Criterion not met.

Lab log: compare recorded growth with -30%; is it strictly lower for CSc1nc(-c2cccc(C)c2)c2cc(-c3ccccc3)n(C)c2n1 ?
Criterion not met

Lab log: compare recorded growth with -30%; is it strictly lower for CCCCSc1nc(Nc2ccc(S(N)(=O)=O)cc2)c(C#N)c(-c2cc(OC)c(OC)c(OC)c2)n1 ?
Criterion not met

Lab log: compare recorded growth with -30%; is it strictly lower for C#CCOc1cc(N(CC)CC)ccc1C(C(=O)NC(C)(C)C)N(C(=O)C1CCc2cc(F)ccc2O1)c1ccc(Br)cc1 (configuration not stated) ?
Criterion not met

Lab log: compare recorded growth with -30%; is it strictly lower for O=C(c1ccc(Cl)cc1)C1[C@H](c2ccccc2Cl)[C@@H](c2ccccc2)NC12C(=O)Nc1ccc(Br)cc12 (some centres not stated) ?
Criterion met

Lab log: compare recorded growth with -30%; is it strictly lower for COc1cc2c(c(OC)c1OC)C(=O)CC(c1cccc(NC(=O)c3cccc(NC(=O)[C@H](C)NC(=O)OC(C)(C)C)c3)c1)O2 (some centres not stated) ?
Criterion not met

Lab log: compare recorded growth with -30%; is it strictly lower for CCN1C(=O)N(CC)C2NNC(Sc3c(C(=O)O)c4ccccc4n(CC(C)C)c3=O)=NC21 (configuration not stated) ?
Criterion met

Lab log: compare recorded growth with -30%; is it strictly lower for COC(=O)c1c(C(=O)OC)c2ccc3c4ccccc4ccc3n2c1C(=O)OC ?
Criterion not met
